Test system: 8XTBD luciferase reporter
Assay Text: YAP Reporter Assay
Format: cell-based
Experimental Parameters: Homo sapiens, HEK-293T; HEK293T cells stably transfected with 8XTBD luciferase reporter and pRLTK; 24-hr incubation; starting from 3 μM, 1:3 dilution, 10 points; read-out: Firefly Luciferase IC50
Experimental Endpoint: IC50

Smiles String	IC50
CNS(=O)(=O)c1ccc(Nc2cccc(OC(F)(F)F)c2)c(-c2nnnn2C)c1	> 3000 nM
CNS(=O)(=O)c1ccc(NC2CCCCC2)c(-c2nnn(Cc3cccnc3)n2)c1	≤ 100 nM
CNS(=O)(=O)c1ccc(Nc2cc(Cl)c(Cl)c(Cl)c2)c(-c2cn(C)cn2)c1	≤ 100 nM

Let us examine a further case.
Which IC50 value is on record for Cn1cc(-c2cc(S(C)(=O)=O)ccc2NC2CCCCC2)nn1 ? 100 to 1000 nM

----------
System: 8XTBD luciferase reporter
Assay Text: YAP Reporter Assay
Assay type: cell-based
Experimental Parameters: Homo sapiens, HEK-293T; HEK293T cells stably transfected with 8XTBD luciferase reporter and pRLTK; 24-hr incubation; starting from 3 μM, 1:3 dilution, 10 points; read-out: Firefly Luciferase IC50
Description: HEK293T cells stably transfected with 8XTBD luciferase reporter and pRLTK in 384-well plates were treated with the test compounds, starting from 3 μM (final concentration in assay plate), 1:3 dilution, and 10 points in quadruplicates. Post 24-hr incubation with compounds at 37° C. and 5% CO2, cells were lysed and 8XTBD-driven firefly luciferase and control TK-driven renilla luciferase activities were measured using Promega Dual-Luciferase Reporter Assay System. […]
pIC50: −log10 of the molar value.
Experimental Endpoint: pIC50

Compound	pIC50
CCCCn1nnc(-c2cc(S(=O)(=O)NC)ccc2NC2CCCCC2)n1 [Compound 21]	≥ 7.00

Lab note: need pIC50 for CNS(=O)(=O)c1ccc(NC2CCCCC2)c(-c2ccncc2)c1 [Compound 65] on 8XTBD luciferase reporter, anyone have it? < 5.52

Request body: readout pIC50, system 8XTBD luciferase reporter, query CNS(=O)(=O)c1ccc(Nc2ccccc2OC(F)(F)F)c(-c2nnn(C)n2)c1 [Compound 102] . Return the value. < 5.52

8XTBD luciferase reporter / pIC50 / CNS(=O)(=O)c1ccc(Nc2c(F)cccc2F)c(-c2cn(C)cn2)c1 [Compound 149] : value? ≥ 7.00

Look up pIC50 with 8XTBD luciferase reporter for this compound: CNS(=O)(=O)c1ccc(Nc2ccc(C(F)(F)F)cc2)c(-c2nnn(CCO)n2)c1 [Compound 116] ≥ 7.00

Entry CS(=O)(=O)c1ccc(NC2CCCCC2)c(-c2nn[nH]n2)c1 [Compound 4] , system 8XTBD luciferase reporter: what pIC50 was measured? < 5.52

Item: CNS(=O)(=O)c1ccc(NC2CCCCC2)c(-c2nnn(-c3ccc(F)cc3)n2)c1 [Compound 16] Test system: 8XTBD luciferase reporter Read-out: pIC50 Value: ? 6.00 to 7.00

Entry CNS(=O)(=O)c1ccc(NC2CCCCC2)c(-c2ccn(C)n2)c1 [Compound 57] , system 8XTBD luciferase reporter: what pIC50 was measured? ≥ 7.00

----------
IC50 overview
Test system: 8XTBD luciferase reporter
Assay Text: YAP Reporter Assay
Format: cell-based
Experimental Parameters: Homo sapiens, HEK-293T; HEK293T cells stably transfected with 8XTBD luciferase reporter and pRLTK; 24-hr incubation; starting from 3 μM, 1:3 dilution, 10 points; read-out: Firefly Luciferase IC50

Compound	IC50
CNS(=O)(=O)c1ccc(NC2CCCCC2)c(-c2nnn(CCF)n2)c1	≤ 100 nM
CNS(=O)(=O)c1ccc(NC2CCCCC2)c(-c2nnn(C3CCCC3)n2)c1	100 to 1000 nM
CNS(=O)(=O)c1ccc(Nc2cc(F)ccc2F)c(-c2nnn(C)n2)c1	≤ 100 nM
CNS(=O)(=O)c1ccc(Nc2ccc(Cl)cc2)c(-c2cn(C)cn2)c1	≤ 100 nM
CNS(=O)(=O)c1ccc(NC2CCCCC2)c(-c2nnn(C3CCN(C(=O)OC(C)(C)C)CC3)n2)c1	> 3000 nM
CNS(=O)(=O)c1ccc(NC2CCCCC2)c(-c2nnn(C3CCN(S(C)(=O)=O)CC3)n2)c1	> 3000 nM
CNS(=O)(=O)c1ccc(NC2CCCCC2)c(-c2nnn(C3CCN(c4cccnc4)C3)n2)c1 (centres unmarked)	100 to 1000 nM
CNS(=O)(=O)c1ccc(Nc2cccc(C(F)(F)F)c2)c(-c2nnnn2C)c1	> 3000 nM

Looking for the measured IC50 of CNS(=O)(=O)c1ccc(NC2CCCCC2)c(-c2nnn(C3CCCNC3)n2)c1 (centres unmarked) , can you help? 100 to 1000 nM

IC50 for CNS(=O)(=O)c1ccc(NC2CCCCC2)c(-c2nnn(C3CCCN(C(C)=O)C3)n2)c1 (centres unmarked) ? 100 to 1000 nM

What value of IC50 has been reported for the following compound? CNS(=O)(=O)c1ccc(Nc2ccc(SC(F)(F)F)cc2)c(-c2cn(C)cn2)c1 ≤ 100 nM

Tell me the measured IC50 of CNS(=O)(=O)c1ccc(NC2CCC(F)(F)CC2)c(-c2nnn(C)n2)c1 , please. ≤ 100 nM

Param item = CNS(=O)(=O)c1ccc(NC2CCCCC2)c(-c2nnn(CCO)n2)c1 ; retrieve measured IC50. 100 to 1000 nM

Reported IC50, compound CNS(=O)(=O)c1ccc(Nc2cccc(OC(F)(F)F)c2)c(-c2nnn(C)n2)c1 : ____ ≤ 100 nM

Which IC50 value belongs to CNS(=O)(=O)c1ccc(NC2CCCCC2)c(-c2nnn(C3CCN(C(=O)OC(C)(C)C)C3)n2)c1 (centres unmarked) ? > 3000 nM

// lookup IC50 for CNS(=O)(=O)c1ccc(Nc2ccc(C(F)(F)F)cc2)c(-c2nnnn2C)c1 > 3000 nM

For the compound shown here, Cc1nc(-c2cc(S(C)(=O)=O)ccc2NC2CCCCC2)no1 , give the reported IC50. ≤ 100 nM

----------
System: 8XTBD luciferase reporter
Assay Text: YAP Reporter Assay
Assay type: cell-based
Experimental Parameters: Homo sapiens, HEK-293T; HEK293T cells stably transfected with 8XTBD luciferase reporter and pRLTK; 24-hr incubation; starting from 3 μM, 1:3 dilution, 10 points; read-out: Firefly Luciferase IC50
Reported IC50 values are given for each entry in this list.

Please review the entries below; each comes with its answer.
Smiles String	Experimental Endpoint	Result
CNS(=O)(=O)c1ccc(Nc2ccc(C(F)(F)F)cc2)c(-c2nnn(CCOCc3ccccc3)n2)c1	IC50	100 to 1000 nM
CS(=O)(=O)c1ccc(NC2CCCCC2)c(-n2ccnc2)c1	IC50	> 3000 nM
CNS(=O)(=O)c1ccc(NC2CCCCC2)c(-c2nnn(CC(F)(F)F)n2)c1	IC50	100 to 1000 nM

Now turn to the next compound.
# returns recorded IC50 (system: 8XTBD luciferase reporter) for CNS(=O)(=O)c1ccc(Nc2cccc(Oc3ccccc3)c2)c(-c2nnn(C)n2)c1 100 to 1000 nM

----------
System: 8XTBD luciferase reporter
Assay Text: YAP Reporter Assay
Type: cell-based
Experimental Parameters: Homo sapiens, HEK-293T; HEK293T cells stably transfected with 8XTBD luciferase reporter and pRLTK; 24-hr incubation; starting from 3 μM, 1:3 dilution, 10 points; read-out: Firefly Luciferase IC50
Experimental Endpoint: IC50

Compound	IC50
CNS(=O)(=O)c1ccc(NC2CCCC(F)(F)C2)c(-c2nnn(C)n2)c1 (centres unmarked)	≤ 100 nM
CNS(=O)(=O)c1ccc(NC2CCCCC2)c(-c2nnn(C3CCN(c4cccnc4)CC3)n2)c1	100 to 1000 nM

Provide the documented IC50 with 8XTBD luciferase reporter as the system for CS(=O)(=O)c1ccc(NC2CCCCC2)c(-n2ccnn2)c1 > 3000 nM

Enter reported IC50 observed with 8XTBD luciferase reporter for CNS(=O)(=O)c1ccc(Nc2cccc(C(F)(F)F)c2)c(-c2nnn(C)n2)c1 ≤ 100 nM

Which IC50 is reported with 8XTBD luciferase reporter for this entry: CNS(=O)(=O)c1ccc(Nc2ccc(C(F)(F)F)cc2)c(-c2nnn(C)n2)c1 ? ≤ 100 nM

Form field: IC50 recorded for CNS(=O)(=O)c1ccc(NC2CCCCC2)c(-c2nnn(C3CCNC3)n2)c1 (centres unmarked) with 8XTBD luciferase reporter (enter value) > 3000 nM

Value wanted: IC50 (8XTBD luciferase reporter) of entry CNS(=O)(=O)c1ccc(NC2CCCCC2)c(-c2cn(C(C)C)cn2)c1 ≤ 100 nM

IC50 of CNS(=O)(=O)c1ccc(NC2CCCCC2)c(-c2cn(C3CC3)cn2)c1 on 8XTBD luciferase reporter? ≤ 100 nM

----------
Test system: 8XTBD luciferase reporter
Assay Text: YAP Reporter Assay
Type: cell-based
Experimental Parameters: Homo sapiens, HEK-293T; HEK293T cells stably transfected with 8XTBD luciferase reporter and pRLTK; 24-hr incubation; starting from 3 μM, 1:3 dilution, 10 points; read-out: Firefly Luciferase IC50
Experimental Endpoint: IC50

Compound	Result
CNc1cccc(-c2cc(S(=O)(=O)NC)ccc2NC2CCCCC2)n1	1 to 3 µM
CNS(=O)(=O)c1ccc(NC2CCCCC2)c(-c2nnn(C3CCCN(S(C)(=O)=O)C3)n2)c1 (stereo not shown)	> 3 µM
CNS(=O)(=O)c1ccc(NC2CCCCC2)c(-c2nnn(C3CN(C(C)=O)C3)n2)c1	0.1 to 1 µM

// returns reported IC50 for input CNS(=O)(=O)c1ccc(Nc2cccc(F)c2)c(-c2nnn(C)n2)c1 0.1 to 1 µM
